target: RBDSARS-CoV (SARS-CoV S protein residues 318-510, C-terminal His-tag) (SARS-CoV, UniProt P59594 318-510); experiment: ELISA
Provide the recorded IC50 for the entries that follow.

Below, each entry is followed by its recorded IC50 result.
binder="4P-86 (VHH) VHH: DVQLVESGGGLVQAGGSLRLSCAVSGRTVSTYGMAWFRQAPGKEREFVATITRSEGTTFYADSVKGRFTISRDNAKNTVYLQMNSLKIEDTAVYYCAVRRDSSWGYSRDSFEYDDWGQGTQVTVSS" testvalue="< 10 nM"
binder="5p-179 (VHH, class IV psNb) VHH: HVQLVESGGGLVQAGGSLRLSCAASGTISTLNAMGWYRQAPGKQRELLASISNLGTTYHADSVAGRFTISRGSAKNTVNLQMNSLKPDDTAVYYCNTRVLEGGTQIRDYWGQGTQVTVSS" testvalue="> 8000 nM"
binder="5p-4 (VHH) VHH: QVQLVESGGGLVQAGASLRLSCAASGRTFTNSHMGWFRQAPGKERDFVAVISRSGGSTLYADSVKGRFTISRDNAKNTVYLQMNTMKPEDTAVYYCAGARTAGLTSNPSLYDYWGQGTQVTVSS" testvalue="10 to 100 nM"
binder="4P-28 (VHH) VHH: QVQLVESGGGLVQAGGSLRLSCAASGRTFSHYPTGWFRQAPGKEREFVSTISESGTSTYYADSVKGRFTISRDNAKNSVYLQMNSLKPEDTALYYCAADTAGRTQYGSSWSTLDGFVYWGQGTQVTVSS" testvalue="1000 to 8000 nM"
binder="5p-126 (VHH) VHH: QVQLVESGGGLVQAGGSLRLSCAAAARFSTSAMGWFRQAPGKEREFVAAVSWSNTNTHYADTVKGRFTISADTAKETVYLQMNSLKPEDTAVYYCAQGGWGLTQPIIVDYWGKGTQVTVSS" testvalue="< 10 nM"

Provide the reported IC50 of each entry below, same order.
1. 4P-17 (VHH) VHH: HVQLVESGGGLVQAGASLRLSCAASGRTASNYVMGWFRQAAGKEREFVAHISWSGDETNYADSVRGRFIISRDNAENTVYLQMNSLKPEDTAVYYCAADRGYSLMYYSSREYTYWGQGTQVTVSS
2. 5p-176 (VHH) VHH: EVQLVESGGRLVQAGGSLRLSCAASGRTFSTYTMAWFRQAPGKEREFVAGIARNGDTAYYSDSVKGRFTISRDNAKNEVSLQMNSLKPEDTAVYTCAARSVVQLEVVLNNPIHFEYWGQGTQVTVSS
3. 5p-74 (VHH) VHH: DVQLVESGGGLVQAGGSLRLSCAASGGTSRRYTMGWFRQAPGKEREFVSAISNTGATISGANSMEGRFTISRDNAKNTVYLQMNSLKPEDTAVYYCAATSRGWSIGMTYDYWGQGTQVTVSS

*A*
1: 1000 to 8000 nM; 2: < 10 nM; 3: < 10 nM
